Numbers sourced from paper PMC10397247.

target.system: T1, 4H2611-AA
T1 chain: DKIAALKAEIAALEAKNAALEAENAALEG
measurement.notes: two-hybrid library CCmax;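 further: natural log of median RNA to DNA barcode read ratio; higher means stronger binding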
study.conditions: mean of both orientations
parameter: interaction score

Example entries begin here.
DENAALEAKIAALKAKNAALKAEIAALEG [4H1401-AA]; -1.66
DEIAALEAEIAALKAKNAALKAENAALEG [4H123-AA]; 0.00349
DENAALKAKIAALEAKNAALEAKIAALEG [4H1845-AA]; -1.56
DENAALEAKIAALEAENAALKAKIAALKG [4H1310-AA]; -1.46
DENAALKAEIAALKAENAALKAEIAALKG [4H1626-AA]; -1.57
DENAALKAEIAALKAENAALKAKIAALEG [4H1629-AA]; -1.42
DKIAALEAENAALEAKIAALKAENAALEG [4H2219-AA]; -1.33
DKIAALEAENAALEAENAALEAKIAALKG [4H2198-AA]; -1.63

(A) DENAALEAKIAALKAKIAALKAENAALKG [4H1388-AA]
(B) DKIAALEAKNAALKAEIAALEAKNAALKG [4H2504-AA]
Lookup: Higher interaction score between A and B ? // output: label of the selected item
Found: A
(A: -0.829, B: -2.59)

(A) DENAALKAEIAALKAKIAALEAKNAALEG [4H1639-AA]
(B) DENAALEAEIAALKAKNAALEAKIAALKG [4H1142-AA]
(C) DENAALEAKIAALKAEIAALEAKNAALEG [4H1351-AA]
(D) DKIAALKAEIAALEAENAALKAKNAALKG [4H2592-AA]
Lookup: Order the records, beginning with the lowest interaction score and ending with the highest. Your answer should be the labels, listed in the requested order.
Found: A, C, B, D
(A: -1.52, C: -0.748, B: -0.194, D: 0.971)
